The reported measurements were obtained from patent US4875922A.

test system: Rice; assay: Intermediate Retardant Test, rice; assay type: in vivo, Rice (Ishikari); conditions: Oryza sativa, 672 h, 500 ppm, overall spray, approximately 28 days, Table VI; read-out: Percentage Reduction in Height of Rice (Compared to formulation blank)
A collection of molecules and their measured Percent reduction in rice height vs formulation blank at 500 ppm
READOUT_TYPE: Percent reduction in rice height vs formulation blank at 500 ppm (%)

molecule="CC(C)(C)C(O)(C#CCCCCl)c1cncnc1 (stereo not drawn)" observed_measurement=11
molecule="CC(C)CCCC(O)(c1cncnc1)C(C)C (stereo not drawn)" observed_measurement=31
molecule="CC(C)C#CC(O)(c1cncnc1)C(C)(C)C (stereo not drawn)" observed_measurement=13
molecule="CCCCC#CC(O)(c1cncnc1)C(C)C (stereo not drawn)" observed_measurement=6.06
molecule="CC(C)CCCC(O)(c1cncnc1)C(C)(C)C (stereo not drawn)" observed_measurement=7
molecule="CC(C)CC#CC(O)(c1cncnc1)C(C)(C)C (stereo not drawn)" observed_measurement=59
